Measured Affinity ELISA CPE mutant ratio (1:3, pH 6.0/7.4) by item
# ASSAYED TARGET: Axl (UniProt P30530)
# Sequence (P30530 26-451 limits assumed): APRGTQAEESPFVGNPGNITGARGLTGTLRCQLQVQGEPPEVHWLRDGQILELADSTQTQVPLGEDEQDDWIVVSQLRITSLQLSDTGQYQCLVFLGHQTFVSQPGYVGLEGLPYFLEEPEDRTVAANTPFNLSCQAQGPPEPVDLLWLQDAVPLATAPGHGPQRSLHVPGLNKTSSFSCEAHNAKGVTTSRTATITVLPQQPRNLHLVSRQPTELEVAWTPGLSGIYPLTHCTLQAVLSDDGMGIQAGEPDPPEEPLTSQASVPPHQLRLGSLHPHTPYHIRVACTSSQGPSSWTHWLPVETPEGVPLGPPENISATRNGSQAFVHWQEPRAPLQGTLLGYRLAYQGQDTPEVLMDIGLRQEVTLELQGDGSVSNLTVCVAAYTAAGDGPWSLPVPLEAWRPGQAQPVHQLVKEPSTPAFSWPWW
# MEASUREMENT NOTES: ELISA, 1:3 dilution
The response must contain the number and no unit.

# count of solved cases: 2
LC-T097I (antibody, V domains shown) VH: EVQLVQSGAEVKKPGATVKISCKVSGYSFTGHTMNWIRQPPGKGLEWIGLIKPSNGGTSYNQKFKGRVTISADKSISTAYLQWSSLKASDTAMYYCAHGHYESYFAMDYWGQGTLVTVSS VL: DIQMTQSPSSLSASVGDRVTITCKASQDVSSAVAWYQQKPGQAPRLLIYWASTRHTGVPSRFSGSGSGTEFTLTISSLQPDDFATYYCQEHFSTPLIFGQGTKVEIK = 3.09
HC-W110R (antibody, V domains shown) VH: EVQLVQSGAEVKKPGATVKISCKVSGYSFTGHTMNWIRQPPGKGLEWIGLIKPSNGGTSYNQKFKGRVTISADKSISTAYLQWSSLKASDTAMYYCAHGHYESYFAMDYRGQGTLVTVSS VL: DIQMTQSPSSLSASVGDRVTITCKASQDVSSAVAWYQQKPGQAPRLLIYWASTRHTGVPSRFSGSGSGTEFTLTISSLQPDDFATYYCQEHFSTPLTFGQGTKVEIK = 5.99

Below: the item to evaluate.
[in] Record request: Affinity ELISA CPE mutant ratio (1:3, pH 6.0/7.4) value, item HC-E102L (antibody, V domains shown) VH: EVQLVQSGAEVKKPGATVKISCKVSGYSFTGHTMNWIRQPPGKGLEWIGLIKPSNGGTSYNQKFKGRVTISADKSISTAYLQWSSLKASDTAMYYCAHGHYLSYFAMDYWGQGTLVTVSS VL: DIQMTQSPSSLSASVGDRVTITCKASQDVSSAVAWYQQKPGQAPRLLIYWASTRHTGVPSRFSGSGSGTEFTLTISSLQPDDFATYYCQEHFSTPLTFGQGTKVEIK
[out] 3.27
